- Tested on: MS2 coat protein
- assayNotes: apparent Kd, MS2 coat protein; higher = weaker binding; RNA-MaP array; FMN 200 µM where present
- runParameters: ligand present: flavin mononucleotide; designed as: OFF switch for flavin mononucleotide
metricName: apparent Kd (nM)
Report the value in nM with no unit label.

Short answer please: apparent Kd, MS2 coat protein, entry CCAUAUAGGUAGGAUAUCGAUUUUAAUUAAUAUCGAGAAGGGUCAACAUGAGGAUCACCCAUGUCAGCAUGUAC
75.5

And then UUGUUGUGAGGAUAUCCAAUAUAUGACAUGAGGAUCACCCAUGUUUCCACUCGUACCUCCGGAGAAGGCACUUAUU , what is it?
28.7

Can you handle UCUUAUUGCAAGGAUAUGCUUUUUAUUUCUUUUGCAGAAGGUGCAACAUGAGGAUCACCCAUGUUUCCGGGCAU next?
28

// query: GCUGCAUAGUCAGGAUAUGCAACAUAAUAUACAAAAUAGUAUAUUAUGACAUGAGGAUCACCCAUGUAGAAGGGACUGUGCAGU
19.9

Another sequence: GUUAUUGACAAGAAGGCAAACAUGAGGAUCACCCAUGUUCUACAUGUAUAUUGAGGAUAUUGCCAAUACAUGAGGAUCACCCAG
53.3

Proceed to AAAAGGUGAGGAUAUUCGGCGCCGGGAAGGUUGGUGCGGAUGAAGAAGGCACAUGAGGAUCACCCAUGUAAUAA
49.1

What do you get for CACGGUGAUGUAGGAUAUACGCUGGAAUACAGCGUAGAAGGACAUGAGGAUCACCCAUGUAAAGUGUCUCCGAAUAACACCGUG ?
63.3
